- target-system: Thermolysin (Bacillus thermoproteolyticus, UniProt P00800)
- Sequence (P00800 whole entry): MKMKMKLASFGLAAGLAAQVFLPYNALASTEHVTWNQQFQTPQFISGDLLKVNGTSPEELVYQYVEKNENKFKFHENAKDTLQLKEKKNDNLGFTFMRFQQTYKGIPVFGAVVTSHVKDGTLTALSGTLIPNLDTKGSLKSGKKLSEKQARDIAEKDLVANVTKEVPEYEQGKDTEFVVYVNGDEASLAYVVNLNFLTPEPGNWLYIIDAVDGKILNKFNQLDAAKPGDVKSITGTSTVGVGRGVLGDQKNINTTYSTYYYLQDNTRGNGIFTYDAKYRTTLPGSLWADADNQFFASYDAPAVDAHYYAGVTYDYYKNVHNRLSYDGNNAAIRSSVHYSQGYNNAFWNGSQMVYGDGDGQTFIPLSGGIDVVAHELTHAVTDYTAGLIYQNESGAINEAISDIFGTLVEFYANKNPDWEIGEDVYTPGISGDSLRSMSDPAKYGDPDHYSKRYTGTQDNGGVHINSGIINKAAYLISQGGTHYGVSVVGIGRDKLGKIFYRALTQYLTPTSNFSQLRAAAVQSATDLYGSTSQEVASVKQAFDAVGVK
readout-kind: IC50 (µM)

Examples with their reported IC50 follow.
>>> observed("O=C1N[C@H](C(=O)O)CCCCCc2ccccc2C[C@@H]1CS")
0.6
>>> observed("O=C1N[C@H](C(=O)O)CCCCCCc2ccccc2C[C@H]1CS")
1.8
>>> observed("O=C(O)CNC(=O)C(CS)Cc1ccccc1 (stereo not drawn) [THIORPHAN]")
9.5
>>> observed("O=C1N[C@H](C(=O)O)CCCCCCc2ccccc2C[C@@H]1CS")
41
>>> observed("O=C1N[C@H](C(=O)O)Cc2ccccc2CCCCCC[C@@H]1CS")
40

[P] O=C1N[C@H](C(=O)O)CCCCCc2ccccc2C[C@H]1CS
[Q] O=C1N[C@@H](C(=O)O)Cc2ccccc2CCCCC[C@@H]1CS
Input: Task for the reader: decide whether P or Q has the larger IC50. Respond with the label that goes with your answer.
Output: Q
(Q: 49 µM, P: 4 µM)
